The origin of these recorded values is the supplement of paper PMC9170038.

test system: MS2 coat protein; experiment: apparent KD of MS2 coat protein; designed switch direction (-1 OFF switch, 1 ON switch): -1; higher = weaker reporter binding; conditions: Eterna round: R95; input ligand: microRNA oligo, concentration not stated
endpoint: apparent KD of MS2 coat protein (nM)
One number for each entry, in nM.

Worked set:
ordered_residues: AAUAACAGAGGAUAUACUGUUUUAUGUGUUUAUUGUUUUAAACAUGAGGAUCACCCAUGUAGAAGGCUGAAUGA [JMF 58] (puzzle: Exclusion 2)
recorded_measurement: 36.4

ordered_residues: CUCCUACAUGAGGAUCACCCAUGUCAGGAUAUCUCAGUGGUACCUAAAUUUACCACCCAGAGAAGGGACGUGCA [Diradireer] (puzzle: Exclusion 1)
recorded_measurement: 11.9

ordered_residues: AAUAACAGAGGAUAUACUGUUUUAUGUGUUUGUUGUUUUGAACAUGAGGAUCACCCAUGUAGAAGGCUGAUUAA [JMF 53] (puzzle: Exclusion 2)
recorded_measurement: 31.6

Hi there! I need apparent KD of MS2 coat protein for each item below, if you can.
1. CAAAAGCUAGGAUAUACAUGAGGAUCACCCAUGUAUAGGUGGGCAGUUCUUAUCAAACGUAGAAGGAGCAUAAA [Uslaisan] (puzzle: Exclusion 3)
2. AAAGAACAUGAGGAUCACCCAUGUGAGGAUAUGUAAGGAUUGUGGAGAAGAAGAGAGAACAGAAGGCACGGAGG [JR_Exclu1_Sub068] (puzzle: Exclusion 1)

[A]
1: 17.5; 2: 32.1

====

test system: MS2 coat protein; assay: apparent KD of MS2 coat protein; designed switch direction (-1 OFF switch, 1 ON switch): 1; higher = weaker reporter binding; conditions: Eterna round: R95; input ligand: microRNA oligo, concentration not stated
Where apparent KD of MS2 coat protein equals or exceeds 50 nM, the correct label is MET; where it does not, the label is NOT MET.

ordered_residues: GUACUACAUGAGGAUCACCCAUGUACAAAGGUACGAGGAUAUGCAUGGACGAAAGUUGGUGCAGAAGGCGUGGUAC [Pin2Pin #5] (puzzle: Same State 1)
group_label: NOT MET

[Q] Does apparent KD of MS2 coat protein meet or surpass 50 nM for ACACAGCUGGGUGAGGAUAUCGGUGGUAAAACAUGAGGAUCACCCAUGUCCGAAGCUCGGACUUCCGAGAAGGCGCCCGGCUGCA [Areronanma] (puzzle: Same State 2) ?
[A] MET

[Q] // same read-out, input: GGAGCCAGCACCGAGGAUAUUCAUAUUAAAACAUGAGGAUCACCCAUGUAGGCCAGAAGGCCUUGGGAGAAGGCGGACUGGCUCG [Xeonanis - 11] (puzzle: Same State 2)
[A] MET

[Q] How about GGGCCAGCUUGUGCUGGGCCUUCGCAUGCACAUGAGGAUCACCCAUGUCGUGUACAUGCUUGGUGCCCGUCUUUCCC [Photon Torp-14] (puzzle: Sensor for hsa-mir-208a) ?
[A] NOT MET

[Q] Next: GCUUCACAUGAGGAUCACCCAUGUCUUCGGAGUCGAGGAUAUGGUAACUGUAAACAGUUGCCAGAAGGCGAGGAGC [SS1 - Son of Teenbexe v9] (puzzle: Same State 1)
[A] MET

[Q] Again, but for UUAUAACAUGAGGAUCACCCAUGUCAACAAAGUCGAGGAUAUGGGCAUAGAGGAUAAGAACCAGAAGGCGAAUAUU [Mat - Same State 1 - Mod of UCT - D39] (puzzle: Same State 1)
[A] MET
